- Assay Target: T1, human CEA on cells (MKN45, LOVO, NCI-H2122, LS174T, CT26/CEA) (human, UniProt P06731 35-685)
- T1 sequence: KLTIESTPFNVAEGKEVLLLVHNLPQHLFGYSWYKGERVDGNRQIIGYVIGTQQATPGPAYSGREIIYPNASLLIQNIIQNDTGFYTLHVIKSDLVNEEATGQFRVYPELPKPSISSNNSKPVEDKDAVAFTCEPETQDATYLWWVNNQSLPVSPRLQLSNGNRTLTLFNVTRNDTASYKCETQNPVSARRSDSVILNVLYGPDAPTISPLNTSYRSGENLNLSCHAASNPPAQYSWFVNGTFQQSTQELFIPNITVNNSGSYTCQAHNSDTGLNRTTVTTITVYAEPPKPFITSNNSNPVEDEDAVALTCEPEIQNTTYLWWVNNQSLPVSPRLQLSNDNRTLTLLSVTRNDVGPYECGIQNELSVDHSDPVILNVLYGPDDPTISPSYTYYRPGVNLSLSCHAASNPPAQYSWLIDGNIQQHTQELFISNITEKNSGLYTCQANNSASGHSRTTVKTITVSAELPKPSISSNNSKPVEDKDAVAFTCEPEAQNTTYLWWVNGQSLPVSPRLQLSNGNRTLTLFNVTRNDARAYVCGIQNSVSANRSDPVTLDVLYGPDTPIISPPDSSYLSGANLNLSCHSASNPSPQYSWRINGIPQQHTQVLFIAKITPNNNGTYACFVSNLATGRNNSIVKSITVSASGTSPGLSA
- Assay Summary: cell-based or functional assay
Listing: Emax, cell killing of MKN45 cells of selected binders
Reported Metric: Emax, cell killing of MKN45 cells

1) BGA9962 (antibody, human IgG1, kappa, V domains shown, linker-payload conjugated after reduction of the antibody, DAR 8 (structure only as a drawing in Table 18)) VH: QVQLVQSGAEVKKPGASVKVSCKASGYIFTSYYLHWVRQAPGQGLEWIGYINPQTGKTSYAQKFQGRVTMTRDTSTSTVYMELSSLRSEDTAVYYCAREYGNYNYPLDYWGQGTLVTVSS VL: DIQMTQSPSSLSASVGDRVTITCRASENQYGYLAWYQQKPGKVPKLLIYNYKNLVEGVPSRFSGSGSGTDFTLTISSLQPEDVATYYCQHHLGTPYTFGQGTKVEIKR    87.1
2) BGA7413 (antibody, human IgG1, kappa, V domains shown, linker-payload conjugated after reduction of the antibody, DAR 8 profile (structure only as a drawing in Table 18)) VH: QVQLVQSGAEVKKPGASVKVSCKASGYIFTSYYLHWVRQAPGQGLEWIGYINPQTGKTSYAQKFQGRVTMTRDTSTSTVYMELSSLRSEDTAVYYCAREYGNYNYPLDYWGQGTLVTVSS VL: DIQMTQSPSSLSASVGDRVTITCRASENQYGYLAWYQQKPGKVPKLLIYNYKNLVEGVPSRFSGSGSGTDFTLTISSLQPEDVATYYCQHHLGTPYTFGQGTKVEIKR    87.2
3) BGA8357 (antibody, human IgG1, kappa, V domains shown, linker-payload conjugated after reduction of the antibody, DAR 8 profile (structure only as a drawing in Table 18)) VH: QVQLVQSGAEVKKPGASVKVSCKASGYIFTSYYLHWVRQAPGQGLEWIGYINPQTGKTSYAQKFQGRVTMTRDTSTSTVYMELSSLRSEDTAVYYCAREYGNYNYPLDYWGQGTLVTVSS VL: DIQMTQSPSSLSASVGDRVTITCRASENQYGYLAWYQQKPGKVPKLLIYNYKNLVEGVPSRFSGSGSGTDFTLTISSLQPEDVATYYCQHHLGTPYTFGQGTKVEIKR    89.1
